Target or test system: RXRα (Homo sapiens, UniProt P19793)
Sequence (P19793 1-462): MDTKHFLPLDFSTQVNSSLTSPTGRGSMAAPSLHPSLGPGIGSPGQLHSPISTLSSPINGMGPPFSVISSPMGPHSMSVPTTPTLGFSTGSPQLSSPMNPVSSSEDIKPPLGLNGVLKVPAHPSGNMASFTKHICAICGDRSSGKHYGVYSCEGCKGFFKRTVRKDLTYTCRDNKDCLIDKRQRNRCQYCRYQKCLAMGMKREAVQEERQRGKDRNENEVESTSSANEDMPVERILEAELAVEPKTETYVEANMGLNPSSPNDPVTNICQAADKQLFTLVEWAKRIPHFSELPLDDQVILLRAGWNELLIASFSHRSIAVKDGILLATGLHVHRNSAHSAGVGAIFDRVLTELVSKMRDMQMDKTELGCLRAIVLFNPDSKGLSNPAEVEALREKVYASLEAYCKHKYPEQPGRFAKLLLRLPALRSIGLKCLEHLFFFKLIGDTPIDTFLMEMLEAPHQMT

Smiles: CCCOc1cc2c(cc1\C(C)=C(F)/C=C/C(C)=C(\F)C(=O)O)C(C)(C)CCC2(C)C
Ki: 0.011 µM

The reported numbers originate from patent US6759547B1.
